- MEASURED ON: TDO (Homo sapiens, UniProt P48775)
- Sequence (P48775 whole entry): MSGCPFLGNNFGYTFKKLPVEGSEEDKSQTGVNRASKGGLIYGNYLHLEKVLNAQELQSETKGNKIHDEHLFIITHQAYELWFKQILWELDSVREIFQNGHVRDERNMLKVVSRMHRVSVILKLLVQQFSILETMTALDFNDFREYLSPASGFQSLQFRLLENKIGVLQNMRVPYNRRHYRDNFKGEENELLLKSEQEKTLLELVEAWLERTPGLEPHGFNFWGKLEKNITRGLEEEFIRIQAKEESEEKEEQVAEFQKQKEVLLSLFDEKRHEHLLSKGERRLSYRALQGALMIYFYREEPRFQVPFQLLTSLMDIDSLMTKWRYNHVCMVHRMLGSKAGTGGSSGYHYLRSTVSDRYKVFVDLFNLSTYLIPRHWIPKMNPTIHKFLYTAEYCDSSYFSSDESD
- MEASUREMENT NOTES: A172 kynurenine cell-based assay
- Parameters: This assay utilised cancer cells which expressed either TDO or IDO; endogenous in cells; host or cells: A172 (human glioblastoma)
- RECORDED CONDITIONS: A172 human glioblastoma cells, 48 hours, 500 μM L-tryptophan; read-out: A172 Kynurenine cell based assay pIC50 (converted)
READOUT KIND: IC50

Answered cases to consult:
MOLECULE	IC50
CCCS(=O)(=O)N1CCC(c2cc(Cl)cc3[nH]ncc23)CC1	< 3.16 µM
Clc1cc(N2CCC(c3ncc[nH]3)CC2)c2cn[nH]c2c1	< 3.16 µM
CC(=O)N1CCCN(c2cc(Cl)cc3[nH]ncc23)CC1	< 3.16 µM

response.value for CN(C)C(=O)c1ccc(-c2cc(Cl)cc3[nH]ncc23)cc1 (field: IC50) = < 3.16 µM

response.value for CS(=O)(=O)N1CCC2(CCN(c3cc(Cl)cc4[nH]ncc34)CC2)CC1 (field: IC50) = < 3.16 µM

response.value for O[C@@H]1CCCC[C@@H]1c1cc(Cl)cc2[nH]ncc12 (field: IC50) = < 3.16 µM

response.value for CC(=O)Nc1ccc(C2CCN(c3cc(Cl)cc4[nH]ncc34)CC2)cc1 (field: IC50) = < 3.16 µM

response.value for OC1(c2cc(Cl)cc3[nH]ncc23)CCC(F)(F)CC1 (field: IC50) = < 3.16 µM

response.value for CN(C)C(=O)CC1CCN(c2cc(Cl)cc3[nH]ncc23)CC1 (field: IC50) = 3.24 to 31.6 µM

response.value for CS(=O)(=O)c1ccc(Nc2cc(Cl)cc3[nH]ncc23)cc1 (field: IC50) = 3.24 to 31.6 µM

response.value for CNS(=O)(=O)N1CCN(c2cc(Cl)cc3[nH]ncc23)CC1 (field: IC50) = < 3.16 µM

response.value for CS(=O)(=O)NCCN1C(=O)NC2(CCN(c3cc(Cl)cc4[nH]ncc34)CC2)C1=O (field: IC50) = < 3.16 µM

response.value for CC(=O)NCC1(C)CN(c2cc(Cl)cc3[nH]ncc23)C1 (field: IC50) = < 3.16 µM

---

- MEASURED ON: TDO (Homo sapiens)
- MEASUREMENT NOTES: hTDO biochemical coupled assay
- RECORDED CONDITIONS: 330 μM L-tryptophan, 17 minutes, room temperature; read-out: hTDO biochemical assay pIC50 (converted)
READOUT KIND: IC50

response.value for Clc1cc(C2CCOCC2)c2cn[nH]c2c1 (field: IC50) = < 3.16 µM

response.value for CC1(C)CN(c2cc(OC(F)(F)F)cc3[nH]ncc23)CCN1S(C)(=O)=O (field: IC50) = < 3.16 µM

---

- MEASURED ON: TDO (Homo sapiens)
- MEASUREMENT NOTES: A172 kynurenine cell-based assay
- Set-up: This assay utilised cancer cells which expressed either TDO or IDO; endogenous in cells; host or cells: A172 (human glioblastoma)
- RECORDED CONDITIONS: A172 human glioblastoma cells, 48 hours, 500 μM L-tryptophan; read-out: A172 Kynurenine cell based assay pIC50 (converted)
READOUT KIND: IC50

Answered cases to consult:
MOLECULE	IC50
CS(=O)(=O)NC1CN(c2cc(Cl)cc3[nH]ncc23)C1 [Compound 431]	< 3.16 µM
CS(=O)(=O)N1CCOC2(CCN(c3cc(Cl)cc4[nH]ncc34)CC2)C1 [Compound 398]	< 3.16 µM
CS(=O)(=O)N1CC=C(c2cc(Cl)cc3[nH]ncc23)CC1 [Compound 77]	< 3.16 µM
COCCS(=O)(=O)N1CCN(c2cccc3[nH]ncc23)CC1 [Compound 23]	> 100 µM
OCCOc1cc(Cl)cc2[nH]ncc12 [Compound 85]	3.24 to 31.6 µM

response.value for CS(=O)(=O)N1CCC(c2cc(C3CC3)cc3[nH]ncc23)CC1 [Compound 87] (field: IC50) = < 3.16 µM

response.value for COc1cc(N2CCN(C(C)=O)CC2)c2cn[nH]c2c1 [Compound 70] (field: IC50) = 3.24 to 31.6 µM

response.value for CNS(=O)(=O)c1ccc(-c2cc(Cl)cc3[nH]ncc23)cc1 [Compound 300] (field: IC50) = < 3.16 µM

response.value for CC(=O)NC1CCN(c2cc(Cl)cc3[nH]ncc23)C1 (stereo not drawn) [Compound 198] (field: IC50) = < 3.16 µM

response.value for CN(C1CCN(c2cc(Cl)cc3[nH]ncc23)CC1)S(C)(=O)=O [Compound 117] (field: IC50) = < 3.16 µM

response.value for CS(=O)(=O)N1CCN(c2cc(Cl)cc3[nH]ncc23)C2CCCCC21 (single isomer, unassigned) [Compound 385] (field: IC50) = 32.4 to 100 µM

response.value for Cc1nc2c(n1C)CN(c1cc(C(F)(F)F)cc3[nH]ncc13)CC2 [Compound 357] (field: IC50) = < 3.16 µM

response.value for CC(=O)N(C)C1CCN(c2cc(Cl)cc3[nH]ncc23)CC1 [Compound 251] (field: IC50) = < 3.16 µM

response.value for CC(=O)N(C)c1ccc(-c2cc(Cl)cc3[nH]ncc23)cc1 [Compound 248] (field: IC50) = < 3.16 µM

response.value for CC(=O)N1CCC(c2cc(OC(F)(F)F)cc3[nH]ncc23)CC1 [Compound 275] (field: IC50) = 32.4 to 100 µM

response.value for CC(C)(O)C(=O)N1CCC(c2cc(Cl)cc3[nH]ncc23)CC1 [Compound 191] (field: IC50) = < 3.16 µM

response.value for CS(=O)(=O)N1CCN(c2cc(Cl)cc3[nH]ncc23)C2CCCCC21 (racemic) [Compound 341] (field: IC50) = 3.24 to 31.6 µM

response.value for Clc1cc(N2CCCCC2)c2cn[nH]c2c1 [Compound 308] (field: IC50) = < 3.16 µM

response.value for NC(=O)c1ccc(-c2cc(Cl)cc3[nH]ncc23)cc1 [Compound 256] (field: IC50) = < 3.16 µM

response.value for CC(=O)N1CCN(c2cc(C#N)cc3[nH]ncc23)CC1 [Compound 323] (field: IC50) = 32.4 to 100 µM

response.value for CN(C)S(=O)(=O)N1CCN(c2cc(Cl)cc3[nH]ncc23)CC1 [Compound 119] (field: IC50) = < 3.16 µM
